Assay: NCI Yeast Anticancer Drug Screen. Data for the mec2-1 strain (AID 157)
Conditions: S. cerevisiae mec2-1 strain, at 50.0 µM (retest, dose inferred, filed as 5.0)
Compounds without any hit were thinned out: in the full panel of roughly 79,000, 15% have a hit. Calls of active or inactive are those of the source. Cut-off read from the data, not from the text of the source: active = growth inhibition above about 70%; inactive = the rest.
I would appreciate it if you answered using one of these outcomes: active, inactive

The examples below pair each entry with its known result.
Molecule: O=C1OC(c2ccccc2)(c2ccc(-c3ccc(O)cc3)cc2)c2ccccc21 (stereo not given)
Category: active

Molecule: O=C(Cl)C(c1ccccc1)(c1ccccc1)c1ccccc1
Category: active

Okay, now this molecule:
// outcome(item) with item = CCCCN(CCCC)CCCC(O)c1c2ccc(Cl)cc2nc2ccc(OC)cc12 (stereo not given)
inactive

---

Assay: NCI Yeast Anticancer Drug Screen. Data for the rad50 strain (AID 155);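 note: 0% = growth of vehicle-only cultures of the same strain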
Details: S. cerevisiae rad50 strain growth inhibition; at 50.0 µM; hits give high values
This is part of a sample that, as a whole, favours compounds with a hit. Of some 79,000 tested, about 15% had one in any assay.
Readout Type: growth inhibition (%)
Give the number; % is assumed, so skip it.

Worked examples, 9 molecules total:
Molecule: Cc1c2[nH]c3ccc(Br)cc3c2c(C)c2[nH]ccc(=O)c12
Measurement Units: %
growth inhibition: 98.9

Molecule: Cc1cc(-c2ccc(N=Nc3cc(S(=O)(=O)O)c4ccccc4c3N)c(C)c2)ccc1N=Nc1cc(S(=O)(=O)O)c2ccccc2c1N
Measurement Units: %
growth inhibition: 64.6

Molecule: O=S(O)CCCCCSSc1ccc(Cl)cc1
Measurement Units: %
growth inhibition: 98

Molecule: CC1=C(C(=O)Nc2cc(C)ccc2C)C(c2cccc([N+](=O)[O-])c2)C(C(=O)Nc2cc(C)ccc2C)=C(C)N1
Measurement Units: %
growth inhibition: -12.3

Molecule: [Pt].c1ccc([PH+](CC[PH+](CC[PH+](c2ccccc2)c2ccccc2)CC[PH+](c2ccccc2)c2ccccc2)c2ccccc2)cc1
Measurement Units: %
growth inhibition: 89.8

Molecule: C/C(=N\O)c1ccc2cc(Br)c3ccccc3c2c1
Measurement Units: %
growth inhibition: 96.2

Molecule: O=S(=O)(O)CC[S][Sn]([S]CCS(=O)(=O)O)([c]1ccccc1)[c]1ccccc1 (tested in a mixture with another compound)
Measurement Units: %
growth inhibition: 71.9

Molecule: Oc1cc(Br)cc2cccnc12
Measurement Units: %
growth inhibition: 87.7

Molecule: CCOC(=O)c1ccc(N(CCC(O)CN=[N+]=[N-])S(=O)(=O)c2ccc(C)cc2)cc1 (stereo not given)
Measurement Units: %
growth inhibition: 57

Report growth inhibition for "S=C(S)NCCN1CCNC1=S" please.
60.4

---

Assay: NCI Yeast Anticancer Drug Screen. Data for the mec2-1 strain (AID 157)
Conditions: S. cerevisiae mec2-1 strain, at 50.0 µM, hits give high values
This is part of a sample that, as a whole, favours compounds with a hit. Of some 79,000 tested, about 15% had one in any assay.
Record Satisfied whenever growth inhibition is at 70% or higher; record Not satisfied when lower.

See these solved cases before continuing.
Molecule: Clc1c(Cl)c(Cl)c(SC2C3CC4C(C3)C42)c(Cl)c1Cl (configuration not stated)
Category: Satisfied
//
Molecule: CCCCCCCCCCCC(=O)c1c(O)c2ccccc2oc1=O
Category: Not satisfied
//
Molecule: O=C(OCc1ccccc1CN1CCOCC1)c1ccc(Br)cc1
Category: Satisfied
//
Molecule: OCN(CO)c1ccc2c(c1)Cc1cc(F)ccc1-2
Category: Satisfied
//
Molecule: N#CC1Sc2ccccc2N1C(=O)c1ccccc1 (configuration not stated)
Category: Satisfied

Decide: growth inhibition of "Oc1c(Br)ccc2c(O)c(Br)ccc12" >= 70%?
Satisfied

Try this molecule next: CCCC(C)NCCCCCNc1cc(OC)cc2cccnc12 (configuration not stated)
Not satisfied

---

Test: NCI Yeast Anticancer Drug Screen. Data for the sgs1 mgt1 strain (AID 161);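 note: 0% = growth of cultures given vehicle only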
Conditions: S. cerevisiae sgs1 mgt1 strain, at 5.0 µM (retest, dose inferred, filed as 0.5), hits give high values
This is part of a sample that, as a whole, favours compounds with a hit. Of some 79,000 tested, about 15% had one in any assay.
Catalogue of growth inhibition values
I only need the number, in %, no unit after it.

Here is how some compounds turned out for growth inhibition.
Compound: CC(=O)C1=C(C)O/C(=C/c2ccc(Cl)cc2)C1=O
Measurement Units: %
Measured Value: 34
//
Compound: S=C(CSc1ccccc1)Nc1cccc2ccccc12
Measurement Units: %
Measured Value: -4

I am curious: what growth inhibition value has been reported for "COc1ccc(Oc2c(OC)cc(NCCCCCNC(C)C)c3ncccc23)cc1" ?
37

// next record "COc1ccnc(-c2cc(OC)cc(/C(N)=N/O)n2)c1"
-2

---

Reported growth inhibition values for the following compounds.
Assay: NCI Yeast Anticancer Drug Screen. Data for the mlh1 rad18 strain (AID 175)
Details: S. cerevisiae mlh1 rad18 strain growth inhibition; at 50.0 µM; hits give high values
The panel holds about 79,000 compounds, 15% with a hit somewhere; the sample as a whole holds those more often.
State the answer as a number, implicitly in %.

In the examples that follow, each entry is paired with its recorded growth inhibition.
Compound: CCCOC(=O)C(S)C(S)C(=O)OCCC (configuration not stated)
Measured Value: 48.2

Compound: O=NNc1ncccc1OCc1ccccc1
Measured Value: 17.8

Compound: O=S(=O)(c1ccccc1)C1CN=NC1c1ccccc1 (configuration not stated)
Measured Value: 97

Compound: c1ccc2c(c1)ccc1c2ccc2sc3ccccc3[n+]21
Measured Value: 91.3

Compound: CC(=O)Oc1ccc2ccccc2c1CN(Cc1c(OC(C)=O)ccc2ccccc12)C(C)=O
Measured Value: 55

Compound: COC(=O)c1ccc(NCC2=C(Br)C(=O)C=CC2=O)cc1Cl
Measured Value: 89.7

Compound: O=C(O)/C=C1\c2ccccc2CCC1c1ccc2ccccc2c1 (configuration not stated)
Measured Value: 99.5

Compound: COc1cccc2c1C(=O)c1c(O)c3c(c(O)c1C2=O)CC(O)(C(=O)CO)CC3OC1CC(N)C(I)C(C)O1 (configuration not stated)
Measured Value: 91

Compound: S=c1[nH]c2cc(-c3ccccc3)ccc2o1
Measured Value: 47.8

Compound: O=C(OCc1ccccc1)c1ccc(O)cc1
Measured Value: 99

Would you kindly share the measured growth inhibition for "C/C=C/c1ccc(OCC(=O)O)c(OC)c1" ?
98

Now consider "O=C(O)c1nc2cc(C(F)(F)F)ccc2nc1Nc1ccc(F)cc1" .
42.9

---

Assay: NCI Yeast Anticancer Drug Screen. Data for the mlh1 rad18 strain (AID 175)
Details: S. cerevisiae mlh1 rad18 strain growth inhibition; at 50.0 µM; hits give high values
The panel holds about 79,000 compounds, 15% with a hit somewhere; the sample as a whole holds those more often.
Assign a class from recorded growth inhibition; defined classes: band A = under 40%, band B = from 40% up to 80%, band C = 80% and over

Previously resolved entries follow.
Compound: CCCCCCCCCCCCCCNC(=O)CCC(NC(=O)c1ccc(N(C)Cc2cnc3nc(N)nc(N)c3n2)cc1)C(=O)NCCCCCCCCCCCCCC (stereo not given)
Category: band A
//
Compound: C1=C(c2ccccc2)SC=C(c2ccccc2)S1
Category: band A
//
Compound: Nc1ccc2c(c1)[nH]c(=O)c1c(Cl)cccc12
Category: band B
//
Compound: O=C1/C(=C/c2cccc([N+](=O)[O-])c2)Sc2scc(-c3ccc([N+](=O)[O-])cc3)[n+]21
Category: band C
//
Compound: COc1ccc(Oc2ccc(C(=O)C(CN(C)C)CN(C)C)cc2)cc1
Category: band C

Bin this entry: "c1ccc(-c2ccc(-c3cnc(-c4ccc(-c5ccccc5)cc4)o3)cc2)cc1"
band C

Next compound: "N#Cc1c(-c2ccc(Cl)cc2)c(C#N)c(=O)n(NS(=O)(=O)c2ccccc2)c1S"
band B

Next record, please: "Cc1nc2[nH]cc(C)c2c(=O)[nH]1"
band A

Please give the result for Oc1cc2c(cc1C(Nc1ncccn1)c1ccc(F)cc1)OCO2 (stereo not given) too.
band B

---

Listed here are molecules together with their documented growth inhibition.
Test: NCI Yeast Anticancer Drug Screen. Data for the rad50 strain (AID 155);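 note: 0% = growth of vehicle-only cultures of the same strain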
Conditions: S. cerevisiae rad50 strain growth inhibition; at 50.0 µM; hits give high values
The panel holds about 79,000 compounds, 15% with a hit somewhere; the sample as a whole holds those more often.
Give your result in % as a bare value.

Requested field: growth inhibition. Item: "CCCCCC(CCCCC)OC(=O)CCN(CCCCC)CCCCC"
74

---

Assay: NCI Yeast Anticancer Drug Screen. Data for the rad50 strain (AID 155);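 note: 0% = growth of vehicle-only cultures of the same strain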
Settings: S. cerevisiae rad50 strain growth inhibition; at 50.0 µM (retest, dose inferred, filed as 5.0); hits give high values
Compounds without any hit were thinned out: in the full panel of roughly 79,000, 15% have a hit.
Decide by growth inhibition: equal to or exceeding 90% means 1.0, less means 0.0.

Compound: CC(C)(C)CC(C)(C)c1ccc(Oc2ccc([N+](=O)[O-])cc2S(=O)(=O)O)cc1
Category: 0.0
//
Compound: O=C1Oc2cc3c(c4cccc1c24)OCN(c1ccccc1)C3
Category: 0.0
//
Compound: CN(C)[C@H]1CC[C@H]2[C@@H]3CCC4C[C@@H](NC(=O)NC(Cc5ccccc5)c5nccs5)CC[C@]4(C)[C@H]3CC[C@]12C (stereo not given in full)
Category: 0.0
//
Compound: CC(C)c1ccc2c(c1)CCC1C(C)(C(=O)O)CCCC21C (stereo not given)
Category: 1.0
//
Compound: CCOC(=O)c1sc2[n+](c1C)C(=O)/C(=C/c1ccc([N+](=O)[O-])cc1)S2
Category: 0.0

Say whether COc1cccc2c1C(=O)c1c(O)c3c(c(O)c1C2=O)C[C@@](O)(C(C)=O)C[C@@H]3OC1CC([N+]([O-])(Cc2ccccc2)Cc2ccccc2)C(O)C(C)O1 (stereo not given in full) shows growth inhibition of 90% or more.
1.0
